Quick record: IC50, hJAK2 (Homo sapiens (Human), UniProt O60674).

Past entries and their recorded results:
COCCNc1ccc(Nc2ncnc(-c3ccc(O[C@H]4CCN(C(=O)[C@H](C)O)C[C@H]4F)c(C#N)c3)n2)cn1: ≥ 1 µM
C[C@H](O)C(=O)N1CC[C@H](Oc2ccc(-c3ncnc(Nc4cnn(CC(F)F)c4)n3)cc2C#N)[C@H](F)C1: ≥ 1 µM

Query block: Could you tell me which IC50 is on file for N#Cc1cc(-c2ncnc(Nc3ccc(N4CCN(C5COC5)CC4)cc3)n2)ccc1OCCN1CCNC(=O)C1 ?
Result block: ≥ 1 µM

* * *

Quick record: pIC50, hJAK2 (Homo sapiens (Human), UniProt O60674).
pIC50: −log10 of the molar value.

Past entries and their recorded results:
N#Cc1cc(-c2ncnc(Nc3ccc(N4CCN(C5COC5)CC4)cc3)n2)ccc1O[C@H]1CCN(C(=O)[C@@H]2CCCCN2)C[C@H]1F [Example 131]: ≤ 6.00
Cc1cc(Nc2ncnc(-c3ccc(O[C@H]4CCN(C=O)CC4(F)F)c(C#N)c3)n2)ccc1C1CCN(C)CC1 [Example 304]: ≤ 6.00
Cc1cc(N2CCOCC2)ccc1Nc1ncnc(-c2ccc(OC3CCOCC3)c(C#N)c2)n1 [Example 109]: < 6.00
CCn1ncc(Nc2ncnc(-c3ccc(O[C@H]4CCN(C(=O)CO)C[C@H]4F)c(C#N)c3)n2)n1 [Example 503]: ≤ 6.00

// next item, pIC50 requested
Query block: Could you tell me which pIC50 is on file for COc1ccc(Nc2ncnc(-c3ccc(OC4CCOCC4)c(C#N)c3)n2)cc1 [Example 72] ?
Result block: < 6.00

* * *

pIC50: −log10 of the molar value.
Quick record: pIC50, UniProtKB O60674.

Past entries and their recorded results:
N#Cc1cc(-c2ncnc(Nc3ccc(N4CCN(C5COC5)CC4)cc3)n2)ccc1OC1CCN(C(=O)c2ccc[nH]2)CC1 [Example 190]: ≤ 6.00
N#Cc1cc(-c2ncnc(Nc3ccc(N4CCN(C5COC5)CC4)cc3)n2)ccc1O[C@H]1CCN(C(=O)[C@@H]2CCCN2)C[C@H]1F [Example 133]: ≤ 6.00

// next item, pIC50 requested
Query block: Could you tell me which pIC50 is on file for Cc1ncc(Nc2ncnc(-c3ccc(O[C@H]4CCN(C(=O)[C@H](C)O)C[C@H]4F)c(C#N)c3)n2)s1 [Example 570] ?
Result block: ≤ 6.00

* * *

target: TBK1 (Homo sapiens (Human)); assay: TBK1 TR-FRET enzymatic assay;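 further: phosphorylation of a biotinylated Ser/Thr peptide by purified full-length recombinant TBK1, read by TR-FRET after 240 min at 25 °C, IC50 is the geometric mean of at least four runs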
Sequence (Q9UHD2 whole entry): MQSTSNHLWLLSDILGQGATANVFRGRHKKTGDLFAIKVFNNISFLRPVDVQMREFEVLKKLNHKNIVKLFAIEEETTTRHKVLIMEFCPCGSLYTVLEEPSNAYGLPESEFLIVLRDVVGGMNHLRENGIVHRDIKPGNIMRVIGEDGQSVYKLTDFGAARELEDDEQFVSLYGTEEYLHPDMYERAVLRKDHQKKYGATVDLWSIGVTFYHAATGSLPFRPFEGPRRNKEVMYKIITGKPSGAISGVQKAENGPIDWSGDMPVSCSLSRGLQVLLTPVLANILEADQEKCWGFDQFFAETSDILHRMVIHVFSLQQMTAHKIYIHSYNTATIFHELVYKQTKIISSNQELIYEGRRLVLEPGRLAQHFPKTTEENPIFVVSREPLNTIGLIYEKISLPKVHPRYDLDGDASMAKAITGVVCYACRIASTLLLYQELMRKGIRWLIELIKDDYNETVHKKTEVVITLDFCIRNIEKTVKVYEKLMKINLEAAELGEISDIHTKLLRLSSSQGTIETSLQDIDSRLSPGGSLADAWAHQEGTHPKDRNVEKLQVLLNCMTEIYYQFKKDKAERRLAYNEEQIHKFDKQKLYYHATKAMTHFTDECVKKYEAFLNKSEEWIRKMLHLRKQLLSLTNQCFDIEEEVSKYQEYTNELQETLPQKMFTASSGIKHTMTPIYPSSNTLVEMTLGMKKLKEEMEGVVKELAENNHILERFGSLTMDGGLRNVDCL
In this section, each of the compounds is paired with its reported pIC50.
By convention, pIC50 is the negative base-10 log of a molar concentration.

Past entries and their recorded results:
N#Cc1cc(-c2ncnc(Nc3ccc(N4CCN(C5COC5)CC4)cc3)n2)ccc1O[C@H]1CCN(C(=O)N2CC[C@@H](O)C2)C[C@H]1F [Example 425]: 8.15
C[C@H](O)C(=O)N1CC[C@H](Oc2ccc(-c3ncnc(Nc4ccc(N5CCC(C)(O)CC5)cc4)n3)cc2C#N)[C@H](F)C1 [Example 355]: 8.40
N#Cc1cc(-c2ncnc(Nc3ccc(N4CCN(C5CCOCC5)CC4)cc3)n2)ccc1O[C@H]1CCN(C(=O)CO)C[C@H]1F [Example 306]: 8.70
N#Cc1cc(-c2ncnc(Nc3ccc(N4CCN(C5COC5)CC4)cc3)n2)ccc1O[C@@H]1CN(C(=O)CO)C[C@@H]1F [Example 101]: 7.85
N#Cc1cc(-c2ncnc(Nc3ccc(N4CCN(C5COC5)CC4)c(F)c3)n2)ccc1O[C@H]1CCN(C(=O)c2cnn[nH]2)C[C@H]1F [Example 373]: 8.70

// next item, pIC50 requested
Query block: Could you tell me which pIC50 is on file for N#Cc1cc(-c2ncnc(Nc3ccc(N4CCN(C5COC5)CC4)cc3)n2)ccc1O[C@@H]1CCN(C(=O)CO)C1 [Example 30] ?
Result block: 8.52
